# experimental-details: Stat Signaling Pathway (AID 446);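 further: ME-180 cervical cancer cells given 40 pM IL-6 alongside compound; SIE-controlled beta-lactamase reporter measured as 460/530 nm FRET emission ratio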
# applied-conditions: ME-180 (cervical carcinoma) SIE beta-lactamase reporter, IL-6 stimulated, 5 h; at 38 µM (top of the series) unless noted
Records with an inconclusive call do not appear. The source made the active and inactive calls. The call rests on the fitted dose curve; in most records, active means well fitted curve in either direction with a large enough effect (not every such curve was filed as active); inconclusive means small, poorly fitted or top-dose-only effect, or another doubt; inactive means flat fitted curve, though single readings scatter.
Pick from true (1) for active, false (0) for inactive when you respond.

Check the results log: what was the call for `Nn1nnc2ccccc21` ?
false (0)

* * *

# experimental-details: qHTS for differential inhibitors of proliferation of Plasmodium falciparum line D10 (AID 1877);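 further: parasites grown with compound for 72 h before DNA staining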; further: potency means the concentration at half of the fitted maximal effect
# applied-conditions: series mostly up to 28.7 µM
Records with an inconclusive call do not appear. Active and inactive are the calls of the source. Calls follow the shape of the dose curve; as a rule, active = well fitted curve in the direction sought with a large enough effect; inconclusive = small, poorly fitted or top-dose-only effect, or another doubt; inactive = no such curve, though single readings can be large or run the other way.
measurement-type: Potency

> print(dat)
                                   molecule            result
1  C=C(C)C1CC=C(C(=O)O)CC1 (stereo not drawn)          inactive
2  O=C(O)/C(=C/c1c(C(=O)O)[nH]c2cc(Cl)cc(Cl)c12)c1ccccc1          inactive
3  CCCC(=O)NCCc1c2n(c3ccc(OC)cc13)CCCc1ccccc1-2  12.6 µM (active)
4                                   CC(N)=O          inactive
5     CCCCCC(O)CCCC(=O)O (stereo not drawn)          inactive

Using known records, supply Potency for C=CC1(C)CC(=O)C2(O)C(C)(O1)C(OC(C)=O)C(O)C1C(C)(C)CCC(O)C12C (stereo not drawn)
inactive

Using known records, supply Potency for `CN1CCN(c2nc3cc(C(F)(F)F)ccc3n3cccc23)CC1`
11.2 µM (active)

Using known records, supply Potency for `N[C@H](C(=O)O)c1cc(O)cc(O)c1`
inactive

Using known records, supply Potency for `CC(C)Cn1c(=O)n(C)c(=O)c2[nH]cnc21`
inactive

Using known records, supply Potency for `O=[N+]([O-])c1cccc2c(Br)[nH]nc12`
inactive

Using known records, supply Potency for `N[C@H]1CONC1=O`
inactive

Using known records, supply Potency for `NC(N)=N[C@@H](CCC(=O)O)C(=O)O`
inactive

Using known records, supply Potency for `CCN1C(=O)C=CC1=O`
inactive
